Tested on: M21
Experiment: Antiproliferative activity against human M21 cells after 48 hrs by SRB assay
Assay type: functional, cell-based
Conditions: M21, 48 h
pIC50: −log10 of the molar value.
Given measured pIC50, output t if it is greater than or equal to 5 and f if not.

INSERT INTO measurements (compoundstring, targetsystem, labelvalue) VALUES
  ('CC(C)c1ccccc1OS(=O)(=O)c1cccc(NC(=O)CCl)c1', 'M21', 't'),
  ('CC(C)C(=O)Nc1cccc(S(=O)(=O)Oc2ccccc2C(C)C)c1', 'M21', 'f'),
  ('CCC(=O)Nc1cccc(S(=O)(=O)Oc2ccccc2C(C)C)c1', 'M21', 'f'),
  ('CCCCCNC(=O)Nc1ccc(S(=O)(=O)Oc2ccccc2I)cc1', 'M21', 't'),
  ('O=C(NCCCCl)Nc1ccc(S(=O)(=O)Oc2ccccc2I)cc1', 'M21', 't'),
  ('CCCNC(=O)Nc1ccc(S(=O)(=O)Oc2ccccc2I)cc1', 'M21', 't'),
  ('CC(C)c1ccccc1OS(=O)(=O)c1cccc(NC(=O)CCCl)c1', 'M21', 'f'),
  ('CC(C)c1ccccc1OS(=O)(=O)c1ccc(NC(=O)C(C)(C)C)cc1', 'M21', 't'),
  ('O=C(CCl)Nc1ccc(S(=O)(=O)Oc2ccccc2I)cc1', 'M21', 't'),
  ('CC(C)c1ccccc1OS(=O)(=O)c1ccc(NC(=O)NCC2CCCC2)cc1', 'M21', 't'),
  ('CCNC(=O)Nc1ccc(S(=O)(=O)Oc2ccccc2C(C)C)cc1', 'M21', 't'),
  ('CC(C)c1ccccc1OS(=O)(=O)c1ccc(NC(=O)CCCCl)cc1', 'M21', 't'),
  ('CC(C)c1ccccc1OS(=O)(=O)c1ccc(NC(=O)CCl)cc1', 'M21', 't'),
  ('CCCC(=O)Nc1cccc(S(=O)(=O)Oc2ccccc2C(C)C)c1', 'M21', 'f'),
  ('CC(=O)Nc1ccc(S(=O)(=O)Oc2ccccc2C(C)C)cc1', 'M21', 'f'),
  ('CC(C)c1ccccc1OS(=O)(=O)c1ccc(NC(=O)CCCl)cc1', 'M21', 'f'),
  ('CCCCCNC(=O)Nc1ccc(S(=O)(=O)Oc2ccccc2C(C)C)cc1', 'M21', 't'),
  ('CCCC(=O)Nc1ccc(S(=O)(=O)Oc2ccccc2C(C)C)cc1', 'M21', 't'),
  ('CCCCCC(=O)Nc1ccc(S(=O)(=O)Oc2ccccc2C(C)C)cc1', 'M21', 't'),
  ('CC(=O)Nc1cccc(S(=O)(=O)Oc2ccccc2C(C)C)c1', 'M21', 'f'),
  ('CCNC(=O)Nc1ccc(S(=O)(=O)Oc2ccccc2I)cc1', 'M21', 't'),
  ('CC(=O)Nc1ccc(S(=O)(=O)Oc2ccccc2I)cc1', 'M21', 'f'),
  ('CC(C)c1ccccc1OS(=O)(=O)c1ccc(NC(=O)NC2CCCC2)cc1', 'M21', 't'),
  ('CCCNC(=O)Nc1ccc(S(=O)(=O)Oc2ccccc2C(C)C)cc1', 'M21', 't');

----------
System: HT-1080
Experiment: Antiproliferative activity against human HT1080 cells after 48 hrs by SRB assay
Type: functional, cell-based
Details: HT-1080, 48 h
Some compounds, each annotated with its measured IC50.
recordedMetric: IC50

INSERT INTO assay_data (compound, valuereported) VALUES
  ('CCCCCNC(=O)Nc1ccc(S(=O)(=O)Oc2ccccc2C(C)C)cc1', '4.7 µM'),
  ('CC(C)C(=O)Nc1ccc(S(=O)(=O)Oc2ccccc2C(C)C)cc1', '4.9 µM'),
  ('CC(=O)Nc1ccc(S(=O)(=O)Oc2ccccc2I)cc1', '17 µM'),
  ('CCCC(=O)Nc1cccc(S(=O)(=O)Oc2ccccc2C(C)C)c1', '15 µM'),
  ('CC(=O)Nc1cccc(S(=O)(=O)Oc2ccccc2C(C)C)c1', '21 µM'),
  ('O=C(Nc1ccc(S(=O)(=O)Oc2ccccc2I)cc1)NC1CC1', '1.3 µM'),
  ('O=C(NCCCCl)Nc1ccc(S(=O)(=O)Oc2ccccc2I)cc1', '2.8 µM'),
  ('CCCC(=O)Nc1ccc(S(=O)(=O)Oc2ccccc2I)cc1', '2 µM'),
  ('CC(C)c1ccccc1OS(=O)(=O)c1cccc(NC(=O)CCl)c1', '0.78 µM'),
  ('CC(C)c1ccccc1OS(=O)(=O)c1ccc(NC(=O)C(C)(C)C)cc1', '11 µM'),
  ('CCCCCNC(=O)Nc1ccc(S(=O)(=O)Oc2ccccc2I)cc1', '6.9 µM'),
  ('CCCNC(=O)Nc1ccc(S(=O)(=O)Oc2ccccc2I)cc1', '0.7 µM'),
  ('CC(C)(C)C(=O)Nc1ccc(S(=O)(=O)Oc2ccccc2I)cc1', '2.6 µM'),
  ('CC(C)c1ccccc1OS(=O)(=O)c1cccc(NC(=O)CCCl)c1', '8.2 µM'),
  ('CC[C@@]1(O)C(=O)OCc2c1cc1n(c2=O)Cc2cc3c(CN(C)C)c(O)ccc3nc2-1 [TOPOTECAN]', '0.5 µM'),
  ('CCNC(=O)Nc1ccc(S(=O)(=O)Oc2ccccc2C(C)C)cc1', '0.25 µM'),
  ('O=C(CCCl)Nc1ccc(S(=O)(=O)Oc2ccccc2I)cc1', '4.2 µM'),
  ('CCCCCC(=O)Nc1cccc(S(=O)(=O)Oc2ccccc2C(C)C)c1', '11 µM'),
  ('CCCCCC(=O)Nc1ccc(S(=O)(=O)Oc2ccccc2C(C)C)cc1', '6.3 µM'),
  ('CC(C)c1ccccc1OS(=O)(=O)c1ccc(NC(=O)NC2CCCC2)cc1', '3.9 µM'),
  ('CCNC(=O)Nc1ccc(S(=O)(=O)Oc2ccccc2I)cc1', '0.14 µM'),
  ('O=C(NCC1CCCC1)Nc1ccc(S(=O)(=O)Oc2ccccc2I)cc1', '6.1 µM'),
  ('CC(C)C(=O)Nc1cccc(S(=O)(=O)Oc2ccccc2C(C)C)c1', '16 µM'),
  ('CCCC(=O)Nc1ccc(S(=O)(=O)Oc2ccccc2C(C)C)cc1', '0.95 µM'),
  ('CC(C)c1ccccc1OS(=O)(=O)c1cccc(NC(=O)C(C)(C)C)c1', '11 µM'),
  ('CCCCCC(=O)Nc1ccc(S(=O)(=O)Oc2ccccc2I)cc1', '9.6 µM'),
  ('CC(C)c1ccccc1OS(=O)(=O)c1ccc(NC(=O)NCC2CCCC2)cc1', '6 µM'),
  ('CC(C)c1ccccc1OS(=O)(=O)c1ccc(NC(=O)NCCCCl)cc1', '2.7 µM'),
  ('CCC(=O)Nc1ccc(S(=O)(=O)Oc2ccccc2I)cc1', '7.2 µM'),
  ('CC(=O)Nc1ccc(S(=O)(=O)Oc2ccccc2C(C)C)cc1', '12 µM'),
  ('CCC(=O)Nc1ccc(S(=O)(=O)Oc2ccccc2C(C)C)cc1', '2.1 µM'),
  ('CC(C)C(=O)Nc1ccc(S(=O)(=O)Oc2ccccc2I)cc1', '3.3 µM'),
  ('CC(C)c1ccccc1OS(=O)(=O)c1ccc(NC(=O)CCCl)cc1', '6.5 µM'),
  ('O=C(CCl)Nc1ccc(S(=O)(=O)Oc2ccccc2I)cc1', '0.6 µM'),
  ('CCCNC(=O)Nc1ccc(S(=O)(=O)Oc2ccccc2C(C)C)cc1', '0.68 µM'),
  ('CC(C)c1ccccc1OS(=O)(=O)c1ccc(NC(=O)CCCCl)cc1', '3.8 µM'),
  ('CCC(=O)Nc1cccc(S(=O)(=O)Oc2ccccc2C(C)C)c1', '12 µM'),
  ('O=C(CCCCl)Nc1ccc(S(=O)(=O)Oc2ccccc2I)cc1', '12 µM'),
  ('CC(C)c1ccccc1OS(=O)(=O)c1ccc(NC(=O)CCl)cc1', '1 µM');
